Molecular target: UniProt:O75460
Sequence (O75460 547-977): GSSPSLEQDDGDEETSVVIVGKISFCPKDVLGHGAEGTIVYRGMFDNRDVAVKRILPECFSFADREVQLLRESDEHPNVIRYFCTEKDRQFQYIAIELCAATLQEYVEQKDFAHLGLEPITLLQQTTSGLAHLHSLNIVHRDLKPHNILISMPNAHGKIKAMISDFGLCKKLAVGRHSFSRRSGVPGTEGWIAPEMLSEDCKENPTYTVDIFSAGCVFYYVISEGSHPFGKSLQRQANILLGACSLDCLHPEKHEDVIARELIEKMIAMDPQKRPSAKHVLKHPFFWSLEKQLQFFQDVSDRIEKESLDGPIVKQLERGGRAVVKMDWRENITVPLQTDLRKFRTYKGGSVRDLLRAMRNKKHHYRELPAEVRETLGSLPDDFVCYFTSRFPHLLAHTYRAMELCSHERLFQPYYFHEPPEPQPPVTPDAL
Test: biochemical
Set-up: gene ERN1; IRE1 cytoplasmic kinase-RNase construct; kinetic fluorescence RNA cleavage (FAM/BHQ XBP1 stem-loop) by IRE1 LKR Q470-L977
Conditions: RNase inhibition; read-out: EC50 (RNase biochemical assay), inhibitors
Experimental: A 5′-Carboxyfluorescein (FAM)-and 3′-Black Hole Quencher (BHQ)-labeled single stem-loop mini-substrate containing XBP1 sequence (sequence reported in Supplementary Table 4) was used as substrate for cleavage by IRE1 LKR (Q470-L977) or IRE1 KR (G547-L977) in 20 mM HEPES pH 7.5, 50 mM potassium acetate, 1 mM magnesium acetate, 1 mM dithiothreitol, 0.05% v/v TritonX-100. […] RNA cleavage was measured kinetically over an hour at room temperature as an increase in fluorescence. […]

smiles_entry	EC50, nM
CCC(=O)Nc1cccc2c(Oc3ncccc3-c3ccnc(N[C@H]4CCCNC4)n3)c(C)ccc12	28
Cc1ccc2c(NS(=O)(=O)c3ccccc3Cl)cccc2c1Oc1ncccc1-c1ccnc(N[C@H]2CCCNC2)n1	17
CCCC(=O)Nc1cccc2c(Oc3ncccc3-c3ccnc(N[C@H]4CCCNC4)n3)c(C)ccc12	22
CC(=O)Nc1cccc2c(Oc3ncccc3-c3ccnc(N[C@H]4CCCNC4)n3)c(C)ccc12	8
CCCOC(=O)Nc1cccc2c(Oc3ncccc3-c3ccnc(N[C@H]4CCCNC4)n3)c(C)ccc12	29

These data points were gathered from paper PMC7736581.
